molecular target: T1, human PD-L1 (human, UniProt Q9NZQ7 19-290); experiment: flow cytometry, CHO cells expressing huPD-L1
T1 construct: also called huPD-L1; CD274
T1 sequence (Q9NZQ7 19-290): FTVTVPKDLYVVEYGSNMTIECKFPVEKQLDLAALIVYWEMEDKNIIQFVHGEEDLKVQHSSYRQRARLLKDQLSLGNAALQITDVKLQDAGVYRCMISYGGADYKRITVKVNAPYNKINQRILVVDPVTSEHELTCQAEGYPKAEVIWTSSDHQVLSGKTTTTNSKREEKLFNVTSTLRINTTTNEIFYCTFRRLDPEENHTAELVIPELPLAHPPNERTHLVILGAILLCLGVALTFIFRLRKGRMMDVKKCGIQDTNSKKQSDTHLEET
MFI at 33.3 nM by entry:
ASSAY METRIC: MFI at 33.3 nM (MFI)

* variant CD80 IgV-Fc H18Y/A26E/E35D/D90G (Fc fusion, not shown: small tags and cut ends; a dimerising Fc or GST) VIHVTKEVKEVATLSCGYNVSVEELEQTRIYWQKDKKMVLTMMSGDMNIWPEYKNRTIFDITNNLSIVILALRPSDEGTYECVVLKYEKGAFKREHLAEVTLSVKAD | 10000
* variant CD80 IgV-Fc M47L/V68M/A71G/D90G (Fc fusion, not shown: small tags and cut ends; a dimerising Fc or GST) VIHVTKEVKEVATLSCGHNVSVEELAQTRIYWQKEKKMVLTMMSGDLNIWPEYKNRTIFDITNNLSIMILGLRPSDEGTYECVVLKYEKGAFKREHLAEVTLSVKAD | 31100
* variant CD80 IgV-Fc H18Y/V68M/A71G/D90G (Fc fusion, not shown: small tags and cut ends; a dimerising Fc or GST) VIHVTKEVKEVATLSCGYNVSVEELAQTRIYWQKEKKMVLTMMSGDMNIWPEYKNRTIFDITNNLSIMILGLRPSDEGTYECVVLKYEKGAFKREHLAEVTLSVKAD | 30700
* variant CD80 IgV-Fc H18Y/A26E/E35D/M47L (Fc fusion, not shown: small tags and cut ends; a dimerising Fc or GST) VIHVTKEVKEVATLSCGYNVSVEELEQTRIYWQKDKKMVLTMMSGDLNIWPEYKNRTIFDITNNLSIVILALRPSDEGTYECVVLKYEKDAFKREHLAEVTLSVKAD | 9950

All figures here come from patent US20210130436A1.
